Assignment: determine reported pIC50 for the given compounds.
# measured.target: E. coli GroEL/ES (Escherichia coli)
# Sequence (P0A6F5 whole entry, looked up): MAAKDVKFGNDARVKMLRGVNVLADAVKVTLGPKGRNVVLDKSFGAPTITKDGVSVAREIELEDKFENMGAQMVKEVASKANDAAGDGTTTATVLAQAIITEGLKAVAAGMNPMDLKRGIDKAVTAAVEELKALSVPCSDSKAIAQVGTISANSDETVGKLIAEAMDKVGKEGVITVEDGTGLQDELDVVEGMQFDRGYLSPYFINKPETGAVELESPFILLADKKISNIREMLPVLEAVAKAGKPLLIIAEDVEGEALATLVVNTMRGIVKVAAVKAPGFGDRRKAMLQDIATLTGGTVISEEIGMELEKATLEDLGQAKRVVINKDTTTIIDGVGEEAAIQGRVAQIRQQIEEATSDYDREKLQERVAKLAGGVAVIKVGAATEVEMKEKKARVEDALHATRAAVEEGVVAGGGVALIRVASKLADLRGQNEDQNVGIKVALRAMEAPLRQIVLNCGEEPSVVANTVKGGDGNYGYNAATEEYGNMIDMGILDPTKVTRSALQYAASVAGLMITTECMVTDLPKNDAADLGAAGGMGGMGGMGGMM
# assay: Inhibition of Escherichia coli GroEL/ES-mediated refolding of the denatured malate dehydrogenase in presence of Escherichia coli type 1 NfsB nitroreductase
# Assay type: protein-complex assay
On this scale, pIC50 is minus log10 of a concentration expressed in M (mol/L).

stdin: Recorded pIC50 for COc1ccc(C(=O)N/N=C/c2ccc([N+](=O)[O-])o2)cc1 , please?
stdout: 5.00

stdin: Moving on to O=C(N/N=C/c1ccc([N+](=O)[O-])o1)c1cccs1
stdout: 5.11

stdin: Quick one: O=C(N/N=C/c1ccc([N+](=O)[O-])o1)c1ccc(Cl)s1
stdout: 5.49

stdin: Input O=C(N/N=C/c1ccc([N+](=O)[O-])o1)c1ccc(O)cc1 [NIFUROXAZIDE]
stdout: 4.72

stdin: And then O=C1CN(/N=C/c2ccc([N+](=O)[O-])o2)C(=O)N1 [NITROFURANTOIN] , what is it?
stdout: 4.08

stdin: Try the compound O=C(N/N=C/c1ccc([N+](=O)[O-])o1)c1ccncc1
stdout: 4.64

stdin: Try CN(C)c1ccc(C(=O)N/N=C/c2ccc([N+](=O)[O-])o2)cc1 next.
stdout: 4.92

stdin: Try this compound next: O=C(N/N=C/c1ccc([N+](=O)[O-])o1)c1ccccc1
stdout: 4.92
